system: human CK2 holoenzyme (Homo sapiens)
assay-details: Mode of inhibition and Ki determination, CE based CK2 activity assay at varied ATP
Type: biochemical
Design: made in house; host or cells: Escherichia coli BL21(DE3), pT7-7 expression system
conditions: IC50 at varied ATP, highest of six ATP concentrations, 600 µM
property: pIC50
pIC50 here: minus log base 10 of the concentration, concentration in moles per litre.

[Q] Could you share which pIC50 value was measured for "Cc1cc(=O)c2c3c(=O)c4ccccc4c3n(C(C)C)c2c1=O" ?
[A] 5.29

----------
// inhibition at 10 µM lookup, one value per entry
system: human CK2 holoenzyme (Homo sapiens)
assay-details: biochemical
conditions: average percent inhibition at 10 µM
# answer = value followed by unit

>  <molecule>
CC(C)c1cc(=O)c2c(c1=O)c1c(=O)c3ccccc3c1n2C(C)C [Compound 7g]

>  <inhibition at 10 µM>
45%

$$$$
>  <molecule>
CC(C)n1c2c(=O)c(-c3ccccc3)cc(=O)c2c2c(=O)c3ccccc3c21 [Compound 7c]

>  <inhibition at 10 µM>
41%

$$$$

Please find the next molecule below.
[Q] Consider the molecule shown here: CC(C)n1c2c(=O)c(-c3ccc(F)cc3)cc(=O)c2c2c(=O)c3ccccc3c21 [Compound 7d] What is its recorded inhibition at 10 µM?
[A] 42%

----------
system: human CK2 holoenzyme (Homo sapiens, UniProt P68400)
Sequence (P68400 whole entry): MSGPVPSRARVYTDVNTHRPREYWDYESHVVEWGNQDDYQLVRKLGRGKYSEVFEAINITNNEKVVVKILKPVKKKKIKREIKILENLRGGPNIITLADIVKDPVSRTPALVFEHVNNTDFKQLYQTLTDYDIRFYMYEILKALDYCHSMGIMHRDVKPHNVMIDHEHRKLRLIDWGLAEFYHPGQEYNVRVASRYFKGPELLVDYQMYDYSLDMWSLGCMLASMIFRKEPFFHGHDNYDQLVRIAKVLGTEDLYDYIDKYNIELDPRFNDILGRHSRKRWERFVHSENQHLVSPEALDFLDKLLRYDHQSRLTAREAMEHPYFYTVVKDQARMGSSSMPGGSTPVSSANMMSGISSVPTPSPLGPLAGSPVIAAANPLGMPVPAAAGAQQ
Sequence (P67870 whole entry partner): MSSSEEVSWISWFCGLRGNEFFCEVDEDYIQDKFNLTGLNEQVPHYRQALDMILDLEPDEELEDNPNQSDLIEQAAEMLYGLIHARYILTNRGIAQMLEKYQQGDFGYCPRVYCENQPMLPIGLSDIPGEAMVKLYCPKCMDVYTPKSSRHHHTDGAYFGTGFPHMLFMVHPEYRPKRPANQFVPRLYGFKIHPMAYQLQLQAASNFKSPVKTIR
assay-details: biochemical
conditions: average percent inhibition at 10 µM
property: inhibition at 10 µM (%)
Give a bare numeral; the unit % is implied.

>  <molecule>
Cc1cc(=O)c2c(c1=O)c1c(=O)c3ccccc3c1n2C(C)C

>  <unit-symbol>
%

>  <inhibition at 10 µM>
72

$$$$
>  <molecule>
CC(C)n1c2c(c3c1-c1ccccc1C3=O)C(=O)CC(c1ccco1)C2 (centres unmarked)

>  <unit-symbol>
%

>  <inhibition at 10 µM>
35

$$$$
>  <molecule>
CC(C)n1c2c(c3c1-c1ccccc1C3=O)C(=O)CC(c1ccc(F)cc1)C2 (centres unmarked)

>  <unit-symbol>
%

>  <inhibition at 10 µM>
12

$$$$
>  <molecule>
CC(C)n1c2c(=O)c(-c3ccco3)cc(=O)c2c2c(=O)c3ccccc3c21

>  <unit-symbol>
%

>  <inhibition at 10 µM>
82

$$$$

Would you kindly look at the next entry?
[Q] Hello, I am looking for reported inhibition at 10 µM with human CK2 holoenzyme (Homo sapiens, UniProt P68400) for CC(C)C1CCc2c(c3c(n2C(C)C)-c2ccccc2C3=O)C1=O (centres unmarked) . Could you help?
[A] 21

----------
system: human CK2 holoenzyme (Homo sapiens)
assay-details: Mode of inhibition and Ki determination, CE based CK2 activity assay at varied ATP
Assay type: biochemical
Design: made in house; host or cells: Escherichia coli BL21(DE3), pT7-7 expression system
conditions: IC50 at varied ATP, fifth of six ATP concentrations ranging from 6 to 600 µM
property: IC50
The reply must contain the numeric value and, after it, the unit.

[Q] Fill in: IC50 of "Cc1cc(=O)c2c3c(=O)c4ccccc4c3n(C(C)C)c2c1=O" is ___
[A] 3.32 µM

----------
Form field: EC50 at 96 h (one value per entry).
assay-details: Cytotoxicity WST-1 assay, statements over the four cell lines
Type: cell-based
conditions: mouse (NIH-3T3, MEF) and human (WI-38, HEK293T), WST-1, cell line not specified, read-out: EC50 (cytotoxic activity, over the cell lines)

Consider the reported EC50 at 96 h for these compounds:
>  <compound>
CC(C)C1CC(=O)c2c3c(n(C(C)C)c2C1)-c1ccccc1C3=O (stereo not drawn)

>  <EC50 at 96 h>
> 10 µM

$$$$
>  <compound>
CC(C)n1c2c(=O)c(-c3ccc(F)cc3)cc(=O)c2c2c(=O)c3ccccc3c21

>  <EC50 at 96 h>
0.4 to 8.8 µM

$$$$
>  <compound>
Cc1cc(=O)c2c(c1=O)c1c(=O)c3ccccc3c1n2C(C)C

>  <EC50 at 96 h>
0.4 to 8.8 µM

$$$$
>  <compound>
CC(C)c1cc(=O)c2c(c1=O)c1c(=O)c3ccccc3c1n2C(C)C

>  <EC50 at 96 h>
0.4 to 8.8 µM

$$$$
>  <compound>
CC1CC(=O)c2c3c(n(C(C)C)c2C1)-c1ccccc1C3=O (stereo not drawn)

>  <EC50 at 96 h>
> 10 µM

$$$$

[Q] // lookup EC50 at 96 h for "CC(C)n1c2c(=O)c(-c3ccccc3)cc(=O)c2c2c(=O)c3ccccc3c21"
[A] 0.4 to 8.8 µM

----------
system: human CK2 holoenzyme (Homo sapiens)
assay-details: Mode of inhibition and Ki determination, CE based CK2 activity assay at varied ATP
Type: biochemical
Parameters: made in house; host or cells: Escherichia coli BL21(DE3), pT7-7 expression system
conditions: IC50 at varied ATP, lowest of six ATP concentrations, 6 µM
property: pIC50
The meaning of pIC50 here: minus log10 of the concentration in molar units.

[Q] Any idea what its pIC50 is? The molecule is "Cc1cc(=O)c2c3c(=O)c4ccccc4c3n(C(C)C)c2c1=O"
[A] 6.89

----------
property: melting point (°C)
Respond with the bare value in °C.

>  <compound>
Cc1cc(=O)c2c3c(=O)c4ccccc4c3n(C(C)C)c2c1=O [Compound 7a]

>  <readout-value>
235

$$$$
>  <compound>
CC(C)n1c2c(c3c1-c1ccccc1C3=O)C(=O)CC(c1ccco1)C2 (stereo not drawn) [Compound 5e]

>  <readout-value>
233.1

$$$$

[Q] Can you share its melting point? I mean this compound: CC(C)n1c2c(=O)c(-c3ccco3)cc(=O)c2c2c(=O)c3ccccc3c21 [Compound 7e]
[A] 216.1

[Q] Moving on to the next compound: CC(C)n1c2c(c3c(O)cc(-c4ccco4)cc31)C(=O)c1ccccc1-2 [Compound 6e]
[A] 191

[Q] Record: CC(C)n1c2c(c3c1-c1ccccc1C3=O)C(=O)CC(c1ccc(F)cc1)C2 (stereo not drawn) [Compound 5d]
[A] 264

----------
system: human CK2 holoenzyme (Homo sapiens)
assay-details: Mode of inhibition and Ki determination, CE based CK2 activity assay at varied ATP
Type: biochemical
Parameters: made in house; host or cells: Escherichia coli BL21(DE3), pT7-7 expression system
conditions: IC50 at varied ATP, second of six ATP concentrations ranging from 6 to 600 µM
property: IC50 (nM)
Value expressed in nM; do not type the unit.

[Q] Endpoint output: IC50 of Cc1cc(=O)c2c3c(=O)c4ccccc4c3n(C(C)C)c2c1=O [Compound 7a] . Value?
[A] 340

----------
# IC50 per entry
system: human CK2 holoenzyme (Homo sapiens, UniProt P68400)
assay-details: biochemical
Quick reminder: number only, in nM, skip the unit.

Known results for molecules:
>  <molecule>
CC(C)n1c2c(=O)c(-c3ccco3)cc(=O)c2c2c(=O)c3ccccc3c21 [Compound 7e]

>  <unit-symbol>
nM

>  <readout-value>
1650

$$$$
>  <molecule>
CC(C)C1CC(=O)c2c3c(n(C(C)C)c2C1)-c1ccccc1C3=O (stereo not drawn) [Compound 5b]

>  <unit-symbol>
nM

>  <readout-value>
610

$$$$

[Q] Fill in: IC50 of Cc1cc(=O)c2c3c(=O)c4ccccc4c3n(C(C)C)c2c1=O [Compound 7a] is ___
[A] 430

----------
system: human CK2 holoenzyme (Homo sapiens)
assay-details: biochemical
conditions: average percent inhibition at 10 µM
property: inhibition at 10 µM (%)
Give a bare numeral; the unit % is implied.

Worked cases, inhibition at 10 µM given:
>  <compound>
CC(C)n1c2c(c3c1-c1ccccc1C3=O)C(=O)CC(c1ccccc1)C2 (stereo not shown)

>  <system>
human CK2 holoenzyme (Homo sapiens)

>  <unit-symbol>
%

>  <inhibition at 10 µM>
7

$$$$
>  <compound>
Cc1cc(=O)c2c3c(=O)c4ccccc4c3n(C(C)C)c2c1=O

>  <system>
human CK2 holoenzyme (Homo sapiens)

>  <unit-symbol>
%

>  <inhibition at 10 µM>
87

$$$$
>  <compound>
CC(C)c1cc(=O)c2c3c(=O)c4ccccc4c3n(C(C)C)c2c1=O

>  <system>
human CK2 holoenzyme (Homo sapiens)

>  <unit-symbol>
%

>  <inhibition at 10 µM>
60

$$$$

[Q] Which measured inhibition at 10 µM value corresponds to O=c1oc2c(O)c(O)cc3c(=O)oc4c(O)c(O)cc1c4c23 [ellagic acid, reference compound] ?
[A] 95

----------
Measured melting point values are reported for all entries that follow.
Answer with a number only, understood to be in °C.

>  <molecule>
CC(C)n1c2c(=O)c(-c3ccccc3)cc(=O)c2c2c(=O)c3ccccc3c21 [Compound 7c]

>  <property>
melting point

>  <readout-value>
230.4

$$$$

[Q] I am curious: what melting point value has been reported for CC(C)c1cc(O)c2c3c(n(C(C)C)c2c1)-c1ccccc1C3=O [Compound 6b] ?
[A] 188.1

[Q] Try CC(C)n1c2c(c3c(O)cc(-c4ccccc4)cc31)C(=O)c1ccccc1-2 [Compound 6c] next.
[A] 198

[Q] Please answer likewise for CC(C)n1c2c(c3c(O)cc(-c4ccc(F)cc4)cc31)C(=O)c1ccccc1-2 [Compound 6d]
[A] 208.1

[Q] // same read-out, input: CC(C)c1cc(=O)c2c(c1=O)c1c(=O)c3ccccc3c1n2C(C)C [Compound 7g]
[A] 226

[Q] Try this molecule next: CC(C)c1cc(=O)c2c3c(=O)c4ccccc4c3n(C(C)C)c2c1=O [Compound 7b]
[A] 230.4

[Q] Next entry: CC(C)n1c2c(c3c1-c1ccccc1C3=O)C(=O)CC(c1ccccc1)C2 (stereo not shown) [Compound 5c]
[A] 278

[Q] Try this molecule next: CC(C)C1CCc2c(c3c(n2C(C)C)-c2ccccc2C3=O)C1=O (stereo not shown) [Compound 5g]
[A] 215

[Q] Do the same for CC(C)n1c2c(=O)c(-c3ccc(F)cc3)cc(=O)c2c2c(=O)c3ccccc3c21 [Compound 7d] please
[A] 258.1

[Q] Also check CC(C)c1ccc2c(c1O)c1c(n2C(C)C)-c2ccccc2C1=O [Compound 6g]
[A] 235
